# System: Leishmania donovani
# test.details: Leishmania intramacrophage assay
# Assay type: functional, organism-based
# Parameters: scale not given: in the data most compounds retested in dose-response had high values
# test.conditions: 30.3 µM; […]
About 1,000 (1.4%) of roughly 69,000 compounds showed an effect of 50% or more. The entries come from a sample that favours strong results as a whole.
Attribute: Percent Effect
Write the numeric value and follow it with the unit.

Some solved entries appear below for comparison.
> print(dat)
                                    molecule          metric  assay.value
 1     OCCc1ccccc1-n1ccnc1-c1cn(C2CCNCC2)nn1  Percent Effect      -17.07%
 2       Cc1noc(C)c1CCCNC(=O)C1CCN(C(C)C)CC1  Percent Effect       24.48%
 3  COc1ccccc1CN1C[C@@H](F)[C@@H](OCc2nc3ncccc3[nH]2)C1  Percent Effect       33.82%
 4  CC(C)c1nnc2n1CCN(C(=O)c1ccc3c(c1)NC(=O)CO3)C2  Percent Effect       10.03%
 5  Cc1ccc(C(C)NCc2cn(CCC(N)=O)c3ccccc23)cc1C (stereo unspecified)  Percent Effect       88.97%
 6           CCn1ncc(CNc2[nH]cnc3nncc2-3)c1C  Percent Effect       46.44%
 7  O=C(Nc1cnccn1)[C@@H]1CC[C@@H]2[C@@H](CCN2Cc2nccs2)O1.O=C(O)C(F)(F)F  Percent Effect      -8.357%
 8  O=C(NCc1cccnc1)[C@H]1CC[C@@H]2[C@@H](CCN2c2ncccn2)O1.O=C(O)C(F)(F)F.O=C(O)C(F)(F)F  Percent Effect       6.718%
 9                 Cc1ccc(NCC2(O)CCNCC2)cc1C  Percent Effect      -19.76%
10  CN1C(=O)CC(C(=O)O)C12CCN(c1ccc3c(n1)CCCC3)CC2 (stereo unspecified)  Percent Effect       21.03%

Measured Percent Effect, `O=C(NCc1cccnc1)[C@@H]1CC[C@@H]2[C@@H](CCN2c2ncccn2)O1.O=C(O)C(F)(F)F.O=C(O)C(F)(F)F` : 42.67%

Measured Percent Effect, `COc1cc2nc(NCc3scnc3C)nc(N)c2cc1OC` : 62.63%

Measured Percent Effect, NC1CCCc2c1cnn2-c1cc(F)cc(F)c1 (stereo unspecified) : -4.914%

Measured Percent Effect, COc1cccc(CN2CC(O)CN(C(=O)C3CCC3)CC2=O)c1OC (stereo unspecified) : 10.32%

Measured Percent Effect, `O=C(c1cccnc1)N1CCC2(CC1)CCN(Cc1ccccn1)C2=O` : 28.38%

Measured Percent Effect, Cc1ccc(C)c(N2CCN(CC3(O)CCNC3)CC2)c1 (stereo unspecified) : 98.99%

Measured Percent Effect, `CS(=O)(=O)Cc1ccc(Cl)cc1NCc1ccccc1F` : 17.75%

Measured Percent Effect, CC(Cn1cc(Br)cn1)C(=O)Nc1ccc(Cl)cn1 (stereo unspecified) : -88.88%

Measured Percent Effect, `CCc1cc(N2CCC(NCCc3ccccc3F)CC2)nc(C)n1` : 63.92%

Measured Percent Effect, Cc1ccc(-c2cnnc(N3CCCC3c3nonc3C)n2)o1 (stereo unspecified) : 17.41%

Measured Percent Effect, `CC1=C(CCN2C[C@H](O)[C@@H](N3CCOCC3)C2)C(C)(C)CCC1` : -12.68%

Measured Percent Effect, `CCn1ncc(Nc2[nH]cnc3nc(C)nc2-3)c1C` : -7.482%

Measured Percent Effect, `O=C(N1CCOCC1)N1CCc2ncnc(NC3CCC3)c2CC1.O=C(O)C(F)(F)F` : 14.85%

Measured Percent Effect, CCOc1ccccc1N1CCN(CC2(O)CCCNC2)CC1 (stereo unspecified) : 12.99%

Measured Percent Effect, `CC(C)n1cnnc1CCNCc1cn(CCC(N)=O)c2ccccc12` : 32.43%
